The measurements presented in this section are drawn from paper PMC2919500.

biological target: PLCδ1 PH domain (Mus musculus, UniProt Q8R3B1); assay: Direct IP6 titration of the free PH domain; conditions: read-out: KD(IP6), 25 °C, binding buffer pH 7.4
measurement label: Kd (nM)
Expressed in nM, but write only the number.

The compound identified as O=P(O)(O)OC1C(OP(=O)(O)O)C(OP(=O)(O)O)C(OP(=O)(O)O)C(OP(=O)(O)O)C1OP(=O)(O)O (stereo not shown) [IP6, inositol 1,2,3,4,5,6-hexakisphosphate] registered its Kd at 3000

====

target: AKT1 PH domain (Homo sapiens); experiment: Direct IP6 titration of the free PH domain; settings: read-out: KD(IP6); free WT AKT1 PH domain, 25 °C, binding buffer pH 7.4
measurement label: Kd (µM)
The reply should be a number in µM, with the unit left off.

Recorded result, O=P(O)(O)OC1C(OP(=O)(O)O)C(OP(=O)(O)O)C(OP(=O)(O)O)C(OP(=O)(O)O)C1OP(=O)(O)O (stereo not shown) [IP6, inositol 1,2,3,4,5,6-hexakisphosphate] , Kd: 260

====

target: AKT1 PH domain (Homo sapiens, UniProt P31749)
Sequence (P31749 1-120): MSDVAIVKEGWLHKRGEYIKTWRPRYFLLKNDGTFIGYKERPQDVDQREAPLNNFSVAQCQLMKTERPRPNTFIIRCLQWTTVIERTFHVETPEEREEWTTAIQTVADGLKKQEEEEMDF
measurement label: Ki
Your reply should be a number followed by the unit it is expressed in.

The observed Ki for O=P(O)(O)OC1C(OP(=O)(O)O)C(OP(=O)(O)O)C(OP(=O)(O)O)C(OP(=O)(O)O)C1OP(=O)(O)O (stereo not shown) [IP6, inositol 1,2,3,4,5,6-hexakisphosphate] when tested with AKT1 PH domain (Homo sapiens, UniProt P31749) stands at 28 mM

====

Target: PLCδ1 PH domain (Mus musculus, UniProt Q8R3B1)
Sequence (Q8R3B1 12-142): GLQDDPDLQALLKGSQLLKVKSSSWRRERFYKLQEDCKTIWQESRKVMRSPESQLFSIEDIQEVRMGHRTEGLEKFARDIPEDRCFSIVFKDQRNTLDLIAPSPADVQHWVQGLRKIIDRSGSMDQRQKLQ
measurement label: pKi
The quantity pKi is defined as the negative base-10 logarithm of the molar concentration.

Measured pKi, O=P(O)(O)OC1C(OP(=O)(O)O)C(OP(=O)(O)O)C(OP(=O)(O)O)C(OP(=O)(O)O)C1OP(=O)(O)O (stereo not shown) [IP6, inositol 1,2,3,4,5,6-hexakisphosphate] : 4.33

====

biological target: AKT1 E17K PH domain (Homo sapiens, UniProt P31749, E17K); assay: Direct IP6 titration of the free PH domain; format: binding; details: read-out: KD(IP6); free AKT1 E17K PH domain, 25 °C, binding buffer pH 7.4
Sequence (P31749 1-120 E17K): as the sequence (P31749 1-120) above, with E17K counted along it
measurement label: pKd
Reminder that pKd is minus the log10 of a molar concentration.

Query O=P(O)(O)OC1C(OP(=O)(O)O)C(OP(=O)(O)O)C(OP(=O)(O)O)C(OP(=O)(O)O)C1OP(=O)(O)O (stereo not shown) [IP6, inositol 1,2,3,4,5,6-hexakisphosphate] yields pKd of 4.96
